Tested on: MDA-MB-415
Test: cells
Assay type: functional, cell-based, Homo sapiens
Conditions: mda-mb-415

{"sequence-string": "CISPLATIN", "IC50": "48.4 µM"}

* * *

Tested on: EW-24;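 further: human EW-24 cancer cell line, growth inhibition read out via a cell viability assay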
Assay: cells
Format: functional, cell-based, Homo sapiens
Conditions: Homo sapiens, EW-24
Description: SANGER: Inhibition of human EW-24 cell growth in a cell viability assay.
Counter-ions that a name gives are not always drawn.

{"compound": "COC1=CC(c2cc3ccccc3[nH]2)=N/C1=C\\c1[nH]c(C)cc1C [OBATOCLAX MESYLATE]", "study-system": "EW-24", "IC50": "340 nM"}
{"compound": "Nc1ccn([C@@H]2O[C@H](CO)[C@@H](O)C2(F)F)c(=O)n1", "study-system": "EW-24", "IC50": "> 1020 nM"}
{"compound": "CCC/C=C/C=C/C(=O)O[C@H]1/C(=C/C(=O)OC)C[C@H]2C[C@H]([C@@H](C)O)OC(=O)C[C@H](O)C[C@@H]3C[C@H](OC(C)=O)C(C)(C)[C@](O)(C[C@@H]4C/C(=C/C(=O)OC)C[C@H](/C=C/C(C)(C)[C@]1(O)O2)O4)O3", "study-system": "EW-24", "IC50": "> 8 nM"}

* * *

System: HCC1937;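 further: growth inhibition measured with a cell viability read-out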
Assay: cells
Format: functional, cell-based, Homo sapiens
Details: Homo sapiens, HCC1937
Description: SANGER: Inhibition of human HCC1937 cell growth in a cell viability assay.
pIC50: −log10 of the molar value.
experimental-readout: pIC50

{"item-smiles": "COc1cc2ncnc(Nc3ccc(F)c(Cl)c3)c2cc1OCCCN1CCOCC1", "measurement": "< 6.30"}
{"item-smiles": "COc1cccc2c1C(=O)c1c(O)c3c(c(O)c1C2=O)C[C@@](O)(C(=O)CO)C[C@@H]3O[C@H]1C[C@H](N)[C@H](O)[C@H](C)O1", "measurement": 6.94}
{"item-smiles": "Cc1cn(-c2cc(NC(=O)c3ccc(C)c(Nc4nccc(-c5cccnc5)n4)c3)cc(C(F)(F)F)c2)cn1", "measurement": "< 5.70"}
{"item-smiles": "CO[C@H]1C[C@@H]2CC[C@@H](C)[C@@](O)(O2)C(=O)C(=O)N2CCCC[C@H]2C(=O)O[C@H]([C@H](C)C[C@@H]2CC[C@@H](OC(=O)C(C)(CO)CO)[C@H](OC)C2)CC(=O)[C@H](C)/C=C(\\C)[C@@H](O)[C@@H](OC)C(=O)[C@H](C)C[C@H](C)/C=C/C=C/C=C/1C", "measurement": "< 6.70"}
{"item-smiles": "CC1(C)CNc2cc(NC(=O)c3cccnc3NCc3ccncc3)ccc21", "measurement": "< 5.70"}
{"item-smiles": "N#Cc1c(O)c2c(-c3ccc(-c4ccccc4O)cc3)csc2[nH]c1=O", "measurement": "< 5.99"}
{"item-smiles": "COc1cc2c(Nc3ccc(NC(=O)c4ccccc4)cc3)ncnc2cc1OCCCN1CCOCC1", "measurement": "< 5.40"}
{"item-smiles": "CS(=O)(=O)c1ccc(C(=O)Nc2ccc(Cl)c(-c3ccccn3)c2)c(Cl)c1", "measurement": "< 5.00"}

* * *

System: RVH-421
Assay: cells
Type: functional, cell-based, Homo sapiens
Details: Homo sapiens, RVH-421
Description: SANGER: Inhibition of human RVH-421 cell growth in a cell viability assay.

{"compound": "CCN(CC)CCCCNc1ncc2cc(-c3cc(OC)cc(OC)c3)c(NC(=O)NC(C)(C)C)nc2n1", "unit-string": "nM", "relation-operator": ">", "IC50": 2000}
{"compound": "Cn1cnc2c(F)c(Nc3ccc(Br)cc3Cl)c(C(=O)NOCCO)cc21", "unit-string": "nM", "relation-operator": "=", "IC50": 279}
{"compound": "Nc1cccc2c1CN(C1CCC(=O)NC1=O)C2=O (stereo not given) [LENALIDOMIDE]", "unit-string": "nM", "relation-operator": ">", "IC50": 5000}
{"compound": "O=C(O)c1ccc(-c2c[nH]c3ncc(-c4ccccc4)cc23)cc1C1CCCC1", "unit-string": "nM", "relation-operator": ">", "IC50": 16000}
{"compound": "COc1cccc2c1C(=O)c1c(O)c3c(c(O)c1C2=O)C[C@@](O)(C(=O)CO)C[C@@H]3O[C@H]1C[C@H](N)[C@H](O)[C@H](C)O1", "unit-string": "nM", "relation-operator": "=", "IC50": 169}
